test-description: Half life in dog at 5 umol/kg, iv
Assay type: ADME, organism-based, Canis lupus familiaris
condition: in vivo
assay-endpoint: log10(half-life) (log10 of the value in h)
Units before log transform: h; reported quantity: half-life; transform: log10.

CC(CCNC(=O)c1c(Cl)cncc1Cl)N1CCC(N(Cc2ccccc2)c2ccc(Oc3ccc(C(=O)O)cc3)cc2)CC1 (centres undefined) ... 0.18
COc1ccc(N(Cc2cnccc2C)C2CCN([C@H](C)CCNC(=O)c3c(C)cc(F)nc3C)CC2)cc1 ... 0.48
COc1ccc(N(Cc2cccc(C#N)n2)C2CCN([C@H](C)CCNC(=O)c3c(C)cc(Cl)nc3C)CC2)cc1 ... -0.10
COc1ccc(N(Cc2cnccc2C)C2CCN([C@H](C)CCNC(=O)c3c(C)cc(Cl)nc3C)CC2)cc1 ... 1.13

Tell me its log10(half-life) given COc1ccc(N(Cc2cnccc2C)C2CCN([C@H](C)CCNC(=O)c3c(C)cc(C(=O)NC(C)C)nc3C)CC2)cc1 as the entry. 0.45

Tell me its log10(half-life) given COCCOc1ccc(N(Cc2cnccc2C)C2CCN([C@H](C)CCNC(=O)c3c(C)cc(Cl)nc3C)CC2)cc1 as the entry. 0.11

Tell me its log10(half-life) given COc1ccc(N(Cc2cnccc2C)C2CCN([C@H](C)CCNC(=O)c3c(C)ccnc3Cl)CC2)cc1 as the entry. 0.52

Tell me its log10(half-life) given CC(CCNC(=O)c1c(Cl)cncc1Cl)N1CCC(N(Cc2cccc(C#N)c2)c2ccc(OC(F)(F)F)cc2)CC1 (centres undefined) as the entry. 0.73

Tell me its log10(half-life) given COc1ccc(N(Cc2cccnc2)C2CCN([C@H](C)CCNC(=O)c3c(C)cc(Cl)nc3C)CC2)cc1 as the entry. 1.12

====

Each entry below carries its recorded clearance.
test-description: Clearance in rat at 10 umol/kg, iv
Format: ADME, organism-based
condition: in vivo
Please give a number only; it is taken to be in mL/min/kg.

Take a look at these entries with their results.
COCCOc1ccc(N(Cc2cnccc2C)C2CCN([C@H](C)CCNC(=O)c3c(C)cc(Cl)nc3C)CC2)cc1 ... 61.2
COc1ccc(N(Cc2cnccc2C)C2CCN([C@H](C)CCNC(=O)c3c(C)cc(Cl)nc3C)CC2)cc1 ... 46.7
COc1ccc(N(Cc2cnccc2C)C2CCN([C@H](C)CCNC(=O)c3c(C)ccnc3Cl)CC2)cc1 ... 58.7

Tell me its clearance given CC(CCNC(=O)c1c(Cl)cncc1Cl)N1CCC(N(Cc2cccc(C#N)c2)c2ccc(OC(F)(F)F)cc2)CC1 (stereo unspecified) as the entry. 132

Tell me its clearance given CC(CCNC(=O)c1c(Cl)cncc1Cl)N1CCC(N(Cc2ccccc2)c2ccc(Oc3ccc(C(=O)O)cc3)cc2)CC1 (stereo unspecified) as the entry. 30

Tell me its clearance given COc1ccc(N(Cc2cnccc2C)C2CCN([C@H](C)CCNC(=O)c3c(C)cc(F)nc3C)CC2)cc1 as the entry. 16.6

====

test-description: Cytotoxic activity against human PBMC assessed as reduction in cell viability
Format: cell-based
assay-endpoint: CC50

CC(CCNC(=O)c1c(Cl)cncc1Cl)N1CCC(N(Cc2cccc(C#N)c2)c2ccc(Br)cc2)CC1 (centres undefined) ... 6.7 µM
CC(CCNC(=O)c1c(Cl)cncc1Cl)N1CCC(N(Cc2cccc(Cl)c2)c2ccc(Br)cc2)CC1 (centres undefined) ... 7.3 µM
CC(CCNC(=O)c1c(Cl)cncc1Cl)N1CCC(N(Cc2ccccc2)c2ccc(C(=O)N(C)C)cc2)CC1 (centres undefined) ... > 30 µM

We next turn to a different compound, shown below.
Tell me its CC50 given COc1ccc(N(Cc2cccnc2)C2CCN([C@H](C)CCNC(=O)c3c(C)cc(F)nc3C)CC2)cc1 as the entry. > 36.7 µM

====

test-description: Cmax in dog
Type: ADME, organism-based, Canis lupus familiaris
condition: in vivo
Each entry below carries its recorded Cmax.
Returns: string containing the numeric result and its unit.

Take a look at these entries with their results.
CC(CCNC(=O)c1c(Cl)cncc1Cl)N1CCC(N(Cc2cccc(C#N)c2)c2ccc(OC(F)(F)F)cc2)CC1 (centres undefined) ... 0.75 µM
CC(CCNC(=O)c1c(Cl)cncc1Cl)N1CCC(N(Cc2ccccc2)c2ccc(Oc3ccc(C(=O)O)cc3)cc2)CC1 (centres undefined) ... 11.2 µM
COc1ccc(N(Cc2cnccc2C)C2CCN([C@H](C)CCNC(=O)c3c(C)cc(F)nc3C)CC2)cc1 ... 0.41 µM

Tell me its Cmax given COCCOc1ccc(N(Cc2cnccc2C)C2CCN([C@H](C)CCNC(=O)c3c(C)cc(Cl)nc3C)CC2)cc1 as the entry. 0.01 µM

Tell me its Cmax given COc1ccc(N(Cc2cccnc2)C2CCN([C@H](C)CCNC(=O)c3c(C)cc(Cl)nc3C)CC2)cc1 as the entry. 1.57 µM

Tell me its Cmax given COc1ccc(N(Cc2cnccc2C)C2CCN([C@H](C)CCNC(=O)c3c(C)ccnc3Cl)CC2)cc1 as the entry. 0.15 µM

Tell me its Cmax given COc1ccc(N(Cc2cnccc2C)C2CCN([C@H](C)CCNC(=O)c3c(C)cc(C(=O)NC(C)C)nc3C)CC2)cc1 as the entry. 0.92 µM

Tell me its Cmax given COc1ccc(N(Cc2cccc(C#N)n2)C2CCN([C@H](C)CCNC(=O)c3c(C)cc(Cl)nc3C)CC2)cc1 as the entry. 0.52 µM

Tell me its Cmax given COc1ccc(N(Cc2cnccc2C)C2CCN([C@H](C)CCNC(=O)c3c(C)cc(Cl)nc3C)CC2)cc1 as the entry. 0.58 µM

====

Each entry below carries its recorded AUC(0-inf).
test-description: AUC (0 to infinity) in dog
Format: ADME, organism-based, Canis lupus familiaris
Set-up: time infinity; concentration or dose not given beside the values
condition: plasma
Please give a number only; it is taken to be in µM·h.

COc1ccc(N(Cc2cnccc2C)C2CCN([C@H](C)CCNC(=O)c3c(C)cc(Cl)nc3C)CC2)cc1 ... 1.33
COCCOc1ccc(N(Cc2cnccc2C)C2CCN([C@H](C)CCNC(=O)c3c(C)cc(Cl)nc3C)CC2)cc1 ... 0.02
COc1ccc(N(Cc2cccnc2)C2CCN([C@H](C)CCNC(=O)c3c(C)cc(Cl)nc3C)CC2)cc1 ... 2.73
CC(CCNC(=O)c1c(Cl)cncc1Cl)N1CCC(N(Cc2cccc(C#N)c2)c2ccc(OC(F)(F)F)cc2)CC1 (stereo not given) ... 5.11

We next turn to a different molecule, shown below.
Tell me its AUC(0-inf) given COc1ccc(N(Cc2cccc(C#N)n2)C2CCN([C@H](C)CCNC(=O)c3c(C)cc(Cl)nc3C)CC2)cc1 as the entry. 0.72

====

test-description: Cytotoxic activity against human PBMC assessed as reduction in cell viability
Type: cell-based
assay-endpoint: CC50

Take a look at these entries with their results.
CC(CCNC(=O)c1c(Cl)cncc1Cl)N1CCC(N(Cc2cccc(C#N)c2)c2ccc(C#N)cc2)CC1 (stereo not given) ... 33.6 µM
CC(CCNC(=O)c1c(Cl)cncc1Cl)N1CCC(N(Cc2ccccc2Cl)c2ccc(Br)cc2)CC1 (stereo not given) ... 5.7 µM
COC(=O)c1ccc(N(Cc2ccccc2)C2CCN(C(C)CCNC(=O)c3c(Cl)cncc3Cl)CC2)cc1 (stereo not given) ... 21.4 µM
COc1ccc(N(Cc2cnccc2C)C2CCN([C@H](C)CCNC(=O)c3c(C)cc(C#N)nc3C)CC2)cc1 ... > 34.8 µM

We next turn to a different compound, shown below.
Tell me its CC50 given COc1ccc(N(Cc2cnccc2C)C2CCN([C@H](C)CCNC(=O)c3c(C)cc(C(=O)NC(C)C)nc3C)CC2)cc1 as the entry. > 32.8 µM

====

Each entry below carries its recorded bioavailability.
test-description: Oral bioavailability in dog
Format: ADME, organism-based, Canis lupus familiaris
condition: in vivo

COc1ccc(N(Cc2cnccc2C)C2CCN([C@H](C)CCNC(=O)c3c(C)cc(Cl)nc3C)CC2)cc1 ... 21%

Tell me its bioavailability given COc1ccc(N(Cc2cnccc2C)C2CCN([C@H](C)CCNC(=O)c3c(C)cc(F)nc3C)CC2)cc1 as the entry. 10%

Tell me its bioavailability given COc1ccc(N(Cc2cnccc2C)C2CCN([C@H](C)CCNC(=O)c3c(C)cc(C(=O)NC(C)C)nc3C)CC2)cc1 as the entry. 5%

Tell me its bioavailability given CC(CCNC(=O)c1c(Cl)cncc1Cl)N1CCC(N(Cc2cccc(C#N)c2)c2ccc(OC(F)(F)F)cc2)CC1 (centres undefined) as the entry. 36%

====

test-description: AUC (0 to infinity) in rat
Assay type: ADME, organism-based
Parameters: time infinity; concentration or dose not given beside the values
condition: plasma
Each entry below carries its recorded AUC(0-inf).
Please give a number only; it is taken to be in µM·h.

COc1ccc(N(Cc2cccnc2)C2CCN([C@H](C)CCNC(=O)c3c(C)cc(Cl)nc3C)CC2)cc1 ... 4.83

Tell me its AUC(0-inf) given COCCOc1ccc(N(Cc2cnccc2C)C2CCN([C@H](C)CCNC(=O)c3c(C)cc(Cl)nc3C)CC2)cc1 as the entry. 7.18

Tell me its AUC(0-inf) given CC(CCNC(=O)c1c(Cl)cncc1Cl)N1CCC(N(Cc2ccccc2)c2ccc(Oc3ccc(C(=O)O)cc3)cc2)CC1 (configuration not stated) as the entry. 9.07

Tell me its AUC(0-inf) given COc1ccc(N(Cc2cnccc2C)C2CCN([C@H](C)CCNC(=O)c3c(C)ccnc3Cl)CC2)cc1 as the entry. 18.3

Tell me its AUC(0-inf) given CC(CCNC(=O)c1c(Cl)cncc1Cl)N1CCC(N(Cc2cccc(C#N)c2)c2ccc(OC(F)(F)F)cc2)CC1 (configuration not stated) as the entry. 7.3

Tell me its AUC(0-inf) given COc1ccc(N(Cc2cnccc2C)C2CCN([C@H](C)CCNC(=O)c3c(C)cc(F)nc3C)CC2)cc1 as the entry. 10.9

Tell me its AUC(0-inf) given COc1ccc(N(Cc2cnccc2C)C2CCN([C@H](C)CCNC(=O)c3c(C)cc(Cl)nc3C)CC2)cc1 as the entry. 22.7
